assayed target: T1, HHH peptide (synthetic)
T1 chain: GHHHG
assay summary: plate binding assay (ELONA); streptavidin conjugate; Fig. S4B legend calls it EC50; 10 mM HEPES, 1.2 mM NaCl (so in the source), 5 mM MgCl2, 5 mM KCl, pH 7.4, 0.1% Tween-20, 1% sheared salmon sperm DNA, 300 uM dextran sulfate; 60 min; temperature not stated
condition summary: tags: N-terminal Cys-biotin-PEG2; label: streptavidin conjugates or HRP
pKd: −log10 of the molar value.
property label: pKd

binder: Biotin-B1 (ssDNA, 5' biotin) DNA: CATGCTTCCCCAGGGAGATGGTTTGCCGGTGGGCAGGTTTAGGGTCTGCTCGGGATTGCGGAGGAACATGCGTCGCAAAC
property label: pKd
reported: 7.26
